# subject-of-test: MDM2 (Homo sapiens)
# Sequence (Q00987 whole entry): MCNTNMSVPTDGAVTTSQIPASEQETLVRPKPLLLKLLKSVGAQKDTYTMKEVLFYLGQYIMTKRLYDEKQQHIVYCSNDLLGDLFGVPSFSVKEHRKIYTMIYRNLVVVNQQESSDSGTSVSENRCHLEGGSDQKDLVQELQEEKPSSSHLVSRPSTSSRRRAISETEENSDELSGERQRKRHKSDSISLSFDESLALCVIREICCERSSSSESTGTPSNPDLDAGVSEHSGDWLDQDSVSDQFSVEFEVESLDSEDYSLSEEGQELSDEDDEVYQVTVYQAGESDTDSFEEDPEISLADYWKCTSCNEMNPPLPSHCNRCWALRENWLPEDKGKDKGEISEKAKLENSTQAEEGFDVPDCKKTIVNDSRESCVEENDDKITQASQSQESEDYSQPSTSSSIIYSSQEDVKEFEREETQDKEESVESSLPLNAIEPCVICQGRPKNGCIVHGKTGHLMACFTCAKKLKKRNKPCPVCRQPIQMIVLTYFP
# test-method-notes: MDM2 binding screen of Libraries 3 and 4: displacement of fluorescent probe F-M8 at 750 nM macrocycle
# settings: Panel b, Library 3: 63 scaffolds combinatorially acylated with 15 carboxylic acids at 30 picomole scale; displacement of fluorescent peptide probe; macrocycle 750 nM
// classify: if (fraction of fluorescent probe displaced < 0.001) 1 else -1

Past entries and their recorded results:
[[record]]
compound = "O=C(CCS(=O)(=O)c1ccccc1)NCCN1CC(=O)N[C@@H](Cc2cccc3ccccc23)C(=O)NCCSSCCC(=O)NCC2(CC2)C1=O"
subject_of_test = "MDM2 (Homo sapiens)"
class = -1

[[record]]
compound = "O=C1CCSSCCNC(=O)[C@H](Cc2cccc3ccccc23)NC(=O)[C@H](CNC(=O)c2ccc3ccccc3c2)NC(=O)C2(CC2)CN1"
subject_of_test = "MDM2 (Homo sapiens)"
class = 1

[[record]]
compound = "O=C(CCS(=O)(=O)c1ccccc1)NCCN1CC(=O)NC(Cc2cccc3ccccc23)C(=O)NCCSSCCC(=O)N2CCOC(C2)C1=O (stereo not shown)"
subject_of_test = "MDM2 (Homo sapiens)"
class = -1

[[record]]
compound = "CN1C(=O)CN(CCNC(=O)/C=C/c2ccc(OCc3ccccc3)cc2)C(=O)C2(CC2)CNC(=O)CCSSCCNC(=O)[C@@H]1Cc1c[nH]c2ccccc12"
subject_of_test = "MDM2 (Homo sapiens)"
class = 1

[[record]]
compound = "O=C1CCSSCCNC(=O)[C@H](Cc2cccc3ccccc23)NC(=O)[C@@H](CNC(=O)c2cccc(Oc3ccccc3)c2)NC(=O)C2(CC2)CN1"
subject_of_test = "MDM2 (Homo sapiens)"
class = -1


INPUT: Hello, I'm reviewing records and need to know if fraction of fluorescent probe displaced of "Cn1cc(C[C@@H]2NC(=O)CN(CCNC(=O)/C=C/c3ccc(OCc4ccccc4)cc3)C(=O)[C@H]3CCCN(C3)C(=O)CCSSCCNC2=O)c2ccccc21" is below 0.001. Could you check?
OUTPUT: -1

INPUT: Determine whether this compound shows fraction of fluorescent probe displaced lower than 0.001 (ties excluded): "O=C(/C=C/c1ccc2ccccc2c1)NCCN1CC(=O)N[C@@H](Cc2c[nH]c3ccccc23)C(=O)NCCSSCCC(=O)N2CCO[C@@H](C2)C1=O"
OUTPUT: -1
